These measurements were taken from PubChem BioAssay (NCI).

Test system: UACC-62 melanoma
Experiment: NCI tumour cell line growth inhibition, 48 h
Assay Metric: TGI (µM)
Answers are plain numbers, in µM.

Observe how each entry below is paired with its result.
>  <Compound>
CCC(=O)OCN(C)c1nc(N(C)COC(=O)CC)nc(N(C)COC(=O)CC)n1

>  <TGI [µM]>
35.8

$$$$
>  <Compound>
CS(=O)(=O)N1CC(CCl)c2ccc(O)cc21 (stereo unspecified)

>  <TGI [µM]>
28.7

$$$$
>  <Compound>
C=C(C)[C@@H]1CC[C@]2(C)[C@H](CC[C@@H]3[C@@H]([C@@](C)(O)CCC=C(C)C)CC[C@]32C)[C@@]1(C)CCC(=O)O

>  <TGI [µM]>
29.5

$$$$
>  <Compound>
O=Cc1ccc(-c2ccc(-c3ccc(CO)s3)o2)s1

>  <TGI [µM]>
6.03

$$$$
>  <Compound>
Cc1ccnc2c1C(=O)C1=C(OC(C)(C)CC1O)C2=O (stereo unspecified)

>  <TGI [µM]>
3.25

$$$$

Read the next record carefully.
The compound listed as `O=[N+]([O-])c1c(F)c(F)c2c(c1F)N(CCCCCl)c1ccccc1S2` has a reported TGI of 26.9
